- TEST_TARGET: A3 adenosine receptor (Homo sapiens, UniProt P0DMS8)
- Construct: expressed in transfected cells; host or cells: CHO cells (ATCC No. CCL-61)
- Sequence (P0DMS8 whole entry): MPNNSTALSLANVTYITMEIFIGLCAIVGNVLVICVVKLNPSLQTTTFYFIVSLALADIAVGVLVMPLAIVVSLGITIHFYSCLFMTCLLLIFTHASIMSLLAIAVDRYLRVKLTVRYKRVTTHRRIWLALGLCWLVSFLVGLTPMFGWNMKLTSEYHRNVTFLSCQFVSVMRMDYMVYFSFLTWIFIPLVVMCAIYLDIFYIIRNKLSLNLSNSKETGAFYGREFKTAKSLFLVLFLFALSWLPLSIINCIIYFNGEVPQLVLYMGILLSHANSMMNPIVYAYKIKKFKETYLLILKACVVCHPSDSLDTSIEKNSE
- EXPERIMENT: Radioligand binding affinity, A3 adenosine receptor ([125I]AB-MECA, CHO cells)
- STUDY_CONDITIONS: nM ± SEM; read-out: Ki(nM) hA3
ENDPOINT: Ki (nM)

These recorded examples may help you get a feel for the data.
{"CHEMICAL_STRUCTURE": "O[C@@H]1[C@H](O)CS[C@H]1n1cnc2c(NCc3cccc4ccccc34)nc(Cl)nc21", "TEST_TARGET": "A3 adenosine receptor (Homo sapiens, UniProt P0DMS8)", "Ki, nM": 24.8}
{"CHEMICAL_STRUCTURE": "O[C@@H]1[C@H](O)CS[C@H]1n1cnc2c(NCc3cccc(Cl)c3)ncnc21", "TEST_TARGET": "A3 adenosine receptor (Homo sapiens, UniProt P0DMS8)", "Ki, nM": 1.5}

A. O[C@@H]1[C@H](O)CO[C@H]1n1cnc2c(NCc3cccc(Br)c3)nc(Cl)nc21
B. CNc1nc(Cl)nc2c1ncn2[C@@H]1SC[C@H](O)[C@@H]1O
C. O[C@@H]1[C@H](O)CS[C@H]1n1cnc2c(NCc3cccc(Br)c3)ncnc21
Problem: Could you please sort these 3 entries by Ki from high to low? Output spec: labels arranged per the requested ranking.
Result: A, C, B
(A: 13 nM, C: 6.8 nM, B: 3.69 nM)

a. O[C@@H]1[C@H](O)CS[C@H]1n1cnc2c(NCc3cccc(F)c3)ncnc21
b. O[C@@H]1[C@H](O)CO[C@H]1n1cnc2c(NCc3cccc(I)c3)nc(Cl)nc21
c. COc1ccc(Cl)cc1CNc1nc(Cl)nc2c1ncn2[C@@H]1SC[C@@H](O)[C@H]1O
d. O[C@@H]1[C@H](O)CS[C@H]1n1cnc2c(NCc3ccccc3Cl)nc(Cl)nc21
Problem: Endpoint returns the given molecules ordered by ascending Ki. Answer format: the labels, in the requested order.
Result: a, c, d, b

---

- TEST_TARGET: A2A adenosine receptor (Homo sapiens, UniProt P29274)
- Construct: expressed in transfected cells; host or cells: HEK 293 cell
- Sequence (P29274 whole entry): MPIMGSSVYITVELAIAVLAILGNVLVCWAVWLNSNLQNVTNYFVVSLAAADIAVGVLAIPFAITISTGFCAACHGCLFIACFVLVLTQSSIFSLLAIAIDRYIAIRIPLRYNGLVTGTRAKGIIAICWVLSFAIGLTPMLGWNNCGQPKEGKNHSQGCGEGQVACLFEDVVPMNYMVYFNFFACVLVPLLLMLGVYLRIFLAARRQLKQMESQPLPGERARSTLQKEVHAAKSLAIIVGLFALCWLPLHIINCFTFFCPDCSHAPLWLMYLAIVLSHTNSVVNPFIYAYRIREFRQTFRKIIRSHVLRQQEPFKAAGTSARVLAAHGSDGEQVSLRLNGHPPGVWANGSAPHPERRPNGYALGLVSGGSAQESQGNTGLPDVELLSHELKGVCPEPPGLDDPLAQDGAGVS
- EXPERIMENT: Radioligand binding affinity, A2A adenosine receptor ([3H]CGS-21680, HEK 293 cell)
- STUDY_CONDITIONS: percentage inhibition of specific binding of 10 µM
ENDPOINT: % hA2A (%)

{"COMPOUND": "CNc1nc(Cl)nc2c1ncn2[C@@H]1SC[C@H](O)[C@@H]1O [Example 10]", "TEST_TARGET": "A2A adenosine receptor (Homo sapiens, UniProt P29274)", "DISPLAY_UNIT": "%", "RESULT_VALUE": 45.0}
{"COMPOUND": "O[C@@H]1[C@H](O)CS[C@H]1n1cnc2c(NCc3cccc(F)c3)nc(Cl)nc21 [Example 1]", "TEST_TARGET": "A2A adenosine receptor (Homo sapiens, UniProt P29274)", "DISPLAY_UNIT": "%", "RESULT_VALUE": 47.6}
{"COMPOUND": "O[C@@H]1[C@H](O)CS[C@H]1n1cnc2c(NCc3cccc(Br)c3)nc(Cl)nc21 [Example 3]", "TEST_TARGET": "A2A adenosine receptor (Homo sapiens, UniProt P29274)", "DISPLAY_UNIT": "%", "RESULT_VALUE": 18.4}

1. O[C@@H]1[C@H](O)CO[C@H]1n1cnc2c(NCc3cccc(Br)c3)nc(Cl)nc21 [Example 15]
2. O=C(O)c1cccc(CNc2nc(Cl)nc3c2ncn3[C@@H]2SC[C@@H](O)[C@H]2O)c1 [Example 9]
Problem: Looking at recorded values for % hA2A, does 1 or 2 come in lower? API: response body contains the label of the selected item.
Result: 2

P. COc1ccccc1CNc1nc(Cl)nc2c1ncn2[C@@H]1SC[C@@H](O)[C@H]1O [Example 7]
Q. O[C@@H]1[C@H](O)CS[C@H]1n1cnc2c(NCc3cccc4ccccc34)nc(Cl)nc21 [Example 8]
Problem: Between P and Q , whose measured % hA2A reads higher? To answer, give the label that identifies your chosen option.
Result: P

---

- EXPERIMENT: Pharmacokinetic test in rats (Experimental Examples 3 and 4)
- Assay type: in vivo
- STUDY_CONDITIONS: male, SD, rat, plasma, po; read-out: half-life T1/2
ENDPOINT: half-life

Problem: Look at this compound and give its reported half-life. O[C@@H]1[C@H](O)CS[C@H]1n1cnc2c(NCc3cccc(Cl)c3)nc(Cl)nc21
Result: ≥ 3.34 h

---

- TEST_TARGET: A1 adenosine receptor (Homo sapiens, UniProt P30542)
- Construct: expressed in transfected cells; host or cells: CHO cells (ATCC No. CCL-61)
- Sequence (P30542 whole entry): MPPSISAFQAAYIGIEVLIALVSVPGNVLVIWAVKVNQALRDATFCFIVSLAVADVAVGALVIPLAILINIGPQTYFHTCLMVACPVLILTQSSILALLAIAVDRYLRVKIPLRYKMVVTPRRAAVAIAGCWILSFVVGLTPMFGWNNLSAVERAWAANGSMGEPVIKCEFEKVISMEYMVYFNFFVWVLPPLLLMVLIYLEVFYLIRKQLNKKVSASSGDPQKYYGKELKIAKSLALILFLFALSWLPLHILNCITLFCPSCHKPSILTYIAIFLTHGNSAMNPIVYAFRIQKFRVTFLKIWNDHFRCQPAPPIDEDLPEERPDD
- EXPERIMENT: Radioligand binding affinity, A1 adenosine receptor ([3H]CCPA, CHO cells)
- Parameters: dose or concentration left out as unconfirmed
- STUDY_CONDITIONS: percentage inhibition of specific binding of [3H]CCPA
ENDPOINT: % hA1 (%)

{"CHEMICAL_STRUCTURE": "O[C@@H]1[C@H](O)CS[C@H]1n1cnc2c(NCc3cccc(F)c3)nc(Cl)nc21", "% hA1 (%)": 19.8}

I. O[C@@H]1[C@H](O)CO[C@H]1n1cnc2c(NCc3cccc(Br)c3)nc(Cl)nc21
II. O=C(O)c1cccc(CNc2nc(Cl)nc3c2ncn3[C@@H]2SC[C@@H](O)[C@H]2O)c1
Problem: Larger number for % hA1: I , or II ? Answer = label.
Result: I
(I: 39.8%, II: 13.1%)

---

- TEST_TARGET: A2A adenosine receptor (Homo sapiens, UniProt P29274)
- Construct: expressed in transfected cells; host or cells: HEK 293 cell
- EXPERIMENT: Radioligand binding affinity, A2A adenosine receptor ([3H]CGS-21680, HEK 293 cell)
- STUDY_CONDITIONS: nM ± SEM; read-out: Ki(nM) hA2A
ENDPOINT: Ki (nM)

{"CHEMICAL_STRUCTURE": "COc1ccc(Cl)cc1CNc1nc(Cl)nc2c1ncn2[C@@H]1SC[C@@H](O)[C@H]1O", "DISPLAY_UNIT": "nM", "RESULT_VALUE": 4020}
{"CHEMICAL_STRUCTURE": "O[C@@H]1[C@H](O)CS[C@H]1n1cnc2c(NCc3ccccc3Cl)nc(Cl)nc21", "DISPLAY_UNIT": "nM", "RESULT_VALUE": 1600}
{"CHEMICAL_STRUCTURE": "O[C@@H]1[C@H](O)CS[C@H]1n1cnc2c(NCc3cccc(Cl)c3)ncnc21", "DISPLAY_UNIT": "nM", "RESULT_VALUE": 440}

a. O[C@@H]1[C@H](O)CS[C@H]1n1cnc2c(NCc3cccc(Br)c3)ncnc21
b. O[C@@H]1[C@H](O)CS[C@H]1n1cnc2c(NCc3cccc(F)c3)ncnc21
Problem: Kindly identify the item with the lower Ki figure among these two: a and b Select an item and report its label.
Result: a
(a: 420 nM, b: 1260 nM)

---

- TEST_TARGET: A1 adenosine receptor (Homo sapiens, UniProt P30542)
- Construct: expressed in transfected cells; host or cells: CHO cells (ATCC No. CCL-61)
- EXPERIMENT: Radioligand binding affinity, A1 adenosine receptor ([3H]CCPA, CHO cells)
- Set-up: dose or concentration left out as unconfirmed
- STUDY_CONDITIONS: percentage inhibition of specific binding of [3H]CCPA
ENDPOINT: % hA1 (%)

// solved cases for % hA1 follow
{"MOLECULE": "O[C@@H]1[C@H](O)CS[C@H]1n1cnc2c(NCc3cccc(Br)c3)nc(Cl)nc21 [Example 3]", "RESULT_VALUE": 34.2}
{"MOLECULE": "O[C@@H]1[C@H](O)CS[C@H]1n1cnc2c(NCc3ccccc3Cl)nc(Cl)nc21 [Example 5]", "RESULT_VALUE": 12.8}
{"MOLECULE": "COc1ccc(Cl)cc1CNc1nc(Cl)nc2c1ncn2[C@@H]1SC[C@@H](O)[C@H]1O [Example 6]", "RESULT_VALUE": 23.8}
{"MOLECULE": "O[C@@H]1[C@H](O)CS[C@H]1n1cnc2c(NCc3cccc(Cl)c3)nc(Cl)nc21 [Example 2]", "RESULT_VALUE": 37.9}

I. O[C@@H]1[C@H](O)CS[C@H]1n1cnc2c(NCc3cccc4ccccc34)nc(Cl)nc21 [Example 8]
II. COc1ccccc1CNc1nc(Cl)nc2c1ncn2[C@@H]1SC[C@@H](O)[C@H]1O [Example 7]
III. O[C@@H]1[C@H](O)CO[C@H]1n1cnc2c(NCc3cccc(I)c3)nc(Cl)nc21 [Example 16]
IV. CNc1nc(Cl)nc2c1ncn2[C@@H]1SC[C@H](O)[C@@H]1O [Example 10]
Problem: rank_up(items): orders items by reported % hA1 in ascending numerical order. Returns: the labels listed in the requested order.
Result: II, I, III, IV
(II: 9.4%, I: 22.0%, III: 37.7%, IV: 55.4%)

Origin of the recorded values: patent EP4186514A1
